TGT: rat mGlu2 (Rattus norvegicus)
Construct: expressed in transfected cells
Sequence (P31421 19-872): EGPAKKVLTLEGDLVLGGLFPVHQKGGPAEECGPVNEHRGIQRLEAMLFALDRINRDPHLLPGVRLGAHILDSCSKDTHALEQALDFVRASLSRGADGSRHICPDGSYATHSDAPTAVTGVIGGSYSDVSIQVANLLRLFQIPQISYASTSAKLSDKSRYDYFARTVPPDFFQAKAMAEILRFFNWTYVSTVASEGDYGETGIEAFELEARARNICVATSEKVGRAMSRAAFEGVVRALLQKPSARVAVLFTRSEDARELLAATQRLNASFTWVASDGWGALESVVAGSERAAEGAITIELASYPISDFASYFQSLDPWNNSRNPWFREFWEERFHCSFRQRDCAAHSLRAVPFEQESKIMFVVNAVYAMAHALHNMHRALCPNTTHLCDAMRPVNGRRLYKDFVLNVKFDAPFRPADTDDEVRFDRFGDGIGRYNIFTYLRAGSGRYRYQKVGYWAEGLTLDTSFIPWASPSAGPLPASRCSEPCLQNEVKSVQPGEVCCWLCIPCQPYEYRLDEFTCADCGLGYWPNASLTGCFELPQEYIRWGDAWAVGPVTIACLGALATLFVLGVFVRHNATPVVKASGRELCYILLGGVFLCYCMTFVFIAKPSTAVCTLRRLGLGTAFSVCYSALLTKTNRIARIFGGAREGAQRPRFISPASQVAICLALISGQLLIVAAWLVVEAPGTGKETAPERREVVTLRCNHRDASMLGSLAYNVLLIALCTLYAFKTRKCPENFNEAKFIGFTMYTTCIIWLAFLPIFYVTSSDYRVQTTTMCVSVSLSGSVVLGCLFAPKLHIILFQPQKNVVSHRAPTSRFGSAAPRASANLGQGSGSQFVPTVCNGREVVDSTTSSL
METHOD: mGlu2 Ca2+ flux assay
Assay type: cell-based
CONDITION SUMMARY: Gα15 HEK293 cells stably expressing rat mGlu2; glutamate EC80 addition; read-out: rat mGlu2 IC50
PROPERTY LABEL: IC50

Some compounds with recorded IC50:
SMILES REPR: Cc1cccc(CCc2ccc3c(c2)c(=O)c(C(N)=O)cn3-c2ccc(F)cc2)c1
IC50: > 10 µM
//
SMILES REPR: Cc1ccc(CCc2ccc3c(c2)c(=O)c(C(N)=O)cn3-c2ccc(F)cc2)cc1
IC50: > 10 µM

Lookup result for CN(Cc1cc(F)c2c(c1)c(=O)c(C(N)=O)cn2-c1ccc(F)cc1)C1CC(F)(F)C1 ; measured IC50: > 30 µM
